EC50 values for the molecules below.
Biological target: human GPR40 (Homo sapiens, UniProt O14842)
Sequence (O14842 whole entry): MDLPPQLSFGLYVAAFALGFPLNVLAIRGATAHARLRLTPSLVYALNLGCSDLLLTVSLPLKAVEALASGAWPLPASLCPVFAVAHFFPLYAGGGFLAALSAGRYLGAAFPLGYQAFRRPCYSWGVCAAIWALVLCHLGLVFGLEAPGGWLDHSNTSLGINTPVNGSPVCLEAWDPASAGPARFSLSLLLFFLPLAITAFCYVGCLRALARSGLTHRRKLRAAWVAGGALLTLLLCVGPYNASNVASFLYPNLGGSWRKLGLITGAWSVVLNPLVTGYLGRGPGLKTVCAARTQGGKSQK
Assay: GPR40 calcium flux assay, human GPR40
Settings: HEK293 cells stably expressing GPR40; table does not say human or rat
Method: Compounds were tested in a calcium flux assay using transfected HEK293 cells stably expressing either human GPR40 or rat GPR40. […] On the day of the experiment, the culture media was replaced with assay buffer (HBSS, 20 mM HEPES, 0.1% BSA) and the cells incubated at 37° C. for 1 h. […] The cell plate and a plate of diluted compounds of Formula (I) were loaded into a fluorescent plate reader that added compounds onto the cells while measuring the fluorescence intensity of each well. […]
endpoint-name: EC50

{"columns": ["molecule", "endpoint-name", "result"],
 "data": [
  ["Cc1cc(CCC(=O)O)ccc1OCC1=C(c2ccc(Cl)cc2)CCCC1 [Compound 483]", "EC50", "3530 nM"],
  ["O=C(O)CCc1cc(F)c(OCC2=C(c3ccc(F)c(F)c3)CC(F)(F)C2)c(F)c1 [Compound 184]", "EC50", "> 5000 nM"],
  ["O=C(O)CCc1ccc(OCC2=C(C3CCCC3)CCC2)cc1C(F)(F)F [Compound 398]", "EC50", "8 nM"],
  ["O=C(O)CCc1ccc(OCC2=C(C3CCCC3)CC(F)(F)C2)cc1F [Compound 457]", "EC50", "46 nM"],
  ["Cc1cc(OCC2=C(c3ccc(F)cc3)CCC2)c(F)cc1CCC(=O)O [Compound 304]", "EC50", "1110 nM"],
  ["COC1CCC(c2ccccc2C)=C(COc2ccc(CCC(=O)O)c(C(F)(F)F)c2)C1 (centres unmarked) [Compound 576]", "EC50", "1570 nM"],
  ["Cc1c(CCC(=O)O)cc(F)c(OCC2=C(c3ccc(F)cc3)CCC2)c1C [Compound 254]", "EC50", "> 5000 nM"],
  ["CCCC#CC1=C(COc2ccc(CCC(=O)O)cc2)CCC1 [Compound 233]", "EC50", "2930 nM"],
  ["Cc1c(CCC(=O)O)ccc(OCC2=C(c3ccc(OC(F)(F)F)cc3)CCC2)c1C [Compound 20]", "EC50", "> 5000 nM"],
  ["O=C(O)CCc1ccc(OCC2=C(c3ccc(C(F)(F)F)cc3)CCC2)cc1Cl [Compound 272]", "EC50", "265 nM"],
  ["Cc1c(CCC(=O)O)ccc(OCC2=C(c3cccnc3)CCC2)c1C [Compound 108]", "EC50", "> 5000 nM"],
  ["O=C(O)CCc1ccc(OCC2=C(Cc3ccccc3F)CCC2)cc1Cl [Compound 438]", "EC50", "138 nM"],
  ["Cc1ccc(C2=C(COc3ccc(CCC(=O)O)c(C(F)(F)F)c3)CCC2)cc1-c1ccccc1 [Compound 292]", "EC50", "1720 nM"],
  ["Cc1cc(CCC(=O)O)ccc1OCC1=C(c2ccco2)CC(F)(F)C1 [Compound 232]", "EC50", "> 5000 nM"],
  ["N#Cc1ccc(C2=C(COc3c(F)cc(CCC(=O)O)cc3F)CC(F)(F)CC2)s1 [Compound 572]", "EC50", "> 5000 nM"],
  ["CC1CCC(c2ccc(Cl)cc2)=C1COc1ccc(CCC(=O)O)cc1 (centres unmarked) [Compound 332]", "EC50", "1300 nM"],
  ["Cc1cc(OCC2=C(c3ccc(OC(F)(F)F)cc3)CCC2)c(F)cc1CCC(=O)O [Compound 325]", "EC50", "2770 nM"],
  ["O=C(O)CCc1ccc(OCC2=C(c3ccc(OC(F)(F)F)cc3)CCC2)cc1C(F)(F)F [Compound 308]", "EC50", "899 nM"],
  ["O=C(O)CCc1ccc(OCC2=C(C3CCC3)CCCC2)cc1Cl [Compound 600]", "EC50", "24 nM"],
  ["Cc1cccc(C2=C(COc3ccc(CCC(=O)O)c(Cl)c3)CCC2)c1 [Compound 298]", "EC50", "1590 nM"],
  ["CC(C)CCC1=C(COc2ccc(CCC(=O)O)c(C(F)(F)F)c2)CCC1 [Compound 374]", "EC50", "199 nM"],
  ["CC1CCC(c2ccc(Cl)cc2)=C1COc1ccc(CCC(=O)O)c(C(F)(F)F)c1 (centres unmarked) [Compound 336]", "EC50", "428 nM"],
  ["COc1cc(OCC2=C(c3ccc(Cl)cc3)CCC2)ccc1CCC(=O)O [Compound 97]", "EC50", "834 nM"],
  ["O=C(O)CCc1ccc(OCC2=C(c3ccc(F)cc3)CCC2)cc1Cl [Compound 260]", "EC50", "488 nM"],
  ["Cc1ccc(C2=C(COc3cc(C)c(CCC(=O)O)cc3F)CCC2)c(F)c1 [Compound 270]", "EC50", "1500 nM"],
  ["O=C(O)CCc1ccc(OCC2=C(C3CCC(F)(F)CC3)CCC2)cc1 [Compound 412]", "EC50", "513 nM"],
  ["O=C(O)CCc1c(F)c(F)c(OCC2=C(c3ccc(Cl)cc3)CCC2)c(F)c1F [Compound 122]", "EC50", "> 5000 nM"],
  ["O=C(O)CCc1ccc(OCC2=C(c3ccc(Cl)cc3)CCC2)cc1OC(F)(F)F [Compound 96]", "EC50", "1780 nM"],
  ["[2H]C([2H])([2H])c1ccc(C2=C(COc3ccc(CCC(=O)O)c(Cl)c3)CCC2)cc1 [Compound 302-D]", "EC50", "952 nM"],
  ["O=C(O)CCc1ccc(OCC2=C(Cc3ccccc3)CCCC2)cc1 [Compound 581]", "EC50", "591 nM"],
  ["COc1ccc(C2=C(COc3ccc(CCC(=O)O)c(C)c3C)CCC2)cn1 [Compound 220]", "EC50", "> 5000 nM"],
  ["CCCC1=C(COc2ccc(CCC(=O)O)cc2)CCCC1 [Compound 589]", "EC50", "2390 nM"],
  ["O=C(O)CCc1ccc(OCC2=C(c3ccc(Cl)cc3)CCC2C(F)(F)F)c(F)c1F (centres unmarked) [Compound 32]", "EC50", "> 5000 nM"],
  ["Cc1cccc(C2=C(COc3ccc(CCC(=O)O)c(C(F)(F)F)c3)CCC2)c1 [Compound 312]", "EC50", "402 nM"],
  ["Cc1c(CCC(=O)O)ccc(OCC2=C(c3ccc(Cl)cc3)CCC2C(F)(F)F)c1C (centres unmarked) [Compound 12]", "EC50", "> 5000 nM"]
]}
